Biological target: MDR1 (Homo sapiens (Human), UniProt P08183)
Sequence (P08183 whole entry): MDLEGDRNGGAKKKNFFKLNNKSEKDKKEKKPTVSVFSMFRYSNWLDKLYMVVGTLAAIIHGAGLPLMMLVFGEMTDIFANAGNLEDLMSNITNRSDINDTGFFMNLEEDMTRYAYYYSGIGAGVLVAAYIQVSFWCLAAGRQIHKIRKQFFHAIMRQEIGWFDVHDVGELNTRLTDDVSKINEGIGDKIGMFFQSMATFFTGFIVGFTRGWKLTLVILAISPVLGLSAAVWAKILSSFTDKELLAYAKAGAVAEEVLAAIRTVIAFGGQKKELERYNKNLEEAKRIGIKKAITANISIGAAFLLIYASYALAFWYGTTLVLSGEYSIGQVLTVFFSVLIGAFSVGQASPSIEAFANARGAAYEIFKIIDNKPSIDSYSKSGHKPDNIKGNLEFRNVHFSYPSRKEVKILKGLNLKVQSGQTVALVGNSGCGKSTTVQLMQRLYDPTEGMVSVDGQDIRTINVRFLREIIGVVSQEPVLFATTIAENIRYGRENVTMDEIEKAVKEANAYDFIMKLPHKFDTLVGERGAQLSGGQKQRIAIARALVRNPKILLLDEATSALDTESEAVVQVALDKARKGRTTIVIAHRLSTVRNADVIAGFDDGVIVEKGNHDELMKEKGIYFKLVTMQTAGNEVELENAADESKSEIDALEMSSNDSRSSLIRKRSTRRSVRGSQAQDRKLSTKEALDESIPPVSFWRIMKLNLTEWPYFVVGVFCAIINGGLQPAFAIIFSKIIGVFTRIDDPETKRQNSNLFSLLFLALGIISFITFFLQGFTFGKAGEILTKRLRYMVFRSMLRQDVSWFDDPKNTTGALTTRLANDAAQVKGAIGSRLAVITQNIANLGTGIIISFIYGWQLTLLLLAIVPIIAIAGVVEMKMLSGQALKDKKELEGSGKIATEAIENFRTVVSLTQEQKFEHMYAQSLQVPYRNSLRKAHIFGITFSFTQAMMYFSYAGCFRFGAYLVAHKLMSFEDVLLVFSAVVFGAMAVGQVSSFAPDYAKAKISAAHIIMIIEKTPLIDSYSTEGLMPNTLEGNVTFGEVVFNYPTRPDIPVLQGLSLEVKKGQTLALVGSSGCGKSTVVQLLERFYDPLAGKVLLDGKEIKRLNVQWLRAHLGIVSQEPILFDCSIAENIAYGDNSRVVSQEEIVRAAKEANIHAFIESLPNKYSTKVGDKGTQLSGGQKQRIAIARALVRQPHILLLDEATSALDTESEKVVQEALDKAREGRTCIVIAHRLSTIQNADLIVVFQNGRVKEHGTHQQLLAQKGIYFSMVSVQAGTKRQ
Assay: In vitro human transporter efflux, MDCKII cells expressing MDR1
Assay type: in vitro ADME
Conditions: MDCK-MDR1, pH 7.4, basolateral-to-apical, 10 μM, 2-hour incubation, pH7.4, read-out: MDCK-MDR1 Papp BA
# Papp B→A at 2 h, 10 μM per record follows
// units = ×10⁻⁶ cm/s; emit number, no label

# count of solved cases: 3
| COMPOUND | UNIT_LABEL | REPORTED_RESULT |
| --- | --- | --- |
| CNC(=O)c1ccc(N2CCN(Cc3ccc4c5c(c(=O)[nH]c4c3)CCO5)CC2)c(Cl)n1 [Comp. Ex. 2, reference compound] | ×10⁻⁶ cm/s | 29 |
| CNC(=O)c1ccc(N2CCN(Cc3ccc4c5c(c(=O)[nH]c4c3F)CCC5)CC2)c(F)n1 [Comp. Ex. 4, reference compound] | ×10⁻⁶ cm/s | 20.6 |
| CNC(=O)c1ccc(N2CCN(Cc3cc(F)c4c5c(c(=O)[nH]c4c3)COC5)CC2)c(F)n1 [Comp. Ex. 3, reference compound] | ×10⁻⁶ cm/s | 32.3 |

Next up:
Return Papp B→A at 2 h, 10 μM for the following compound: CNC(=O)c1ccc(N2CCN(Cc3ccc4c5c(c(=O)[nH]c4c3)CCO5)CC2)c(C)n1 [Comp. Ex. 1, reference compound]
39.8

----------
Test system: DLD-1 BRCA2(−/−) cells
Assay: Cell growth inhibition assay (CellTiter-Glo), DLD-1 BRCA2(−/−)
Type: cell-based
Details: Homo sapiens, DLD-1, 168 h; cell viability, CellTiter Glo 2.0, 7 days
# pEC50 per record follows
Please express pEC50 as -log10 of the molar concentration.

# count of solved cases: 3
| COMPOUND | pEC50 |
| --- | --- |
| O=C(NCC(F)F)c1ccc(N2CCN(Cc3ccc4c5c(c(=O)[nH]c4c3F)CCO5)CC2)c(F)n1 [Example 15] | 8.72 |
| CNC(=O)c1ccc(N2CCN(Cc3ccc4c([nH]c(=O)c5cc(F)nn54)c3F)CC2)c(F)n1 [Example 25] | 8.74 |
| CNC(=O)c1ccc(N2CCN(Cc3ccc4c([nH]c(=O)c5cccn54)c3F)CC2)c(F)n1 [Example 10] | 9.19 |

Next up:
Return pEC50 for the following compound: CNC(=O)c1ccc(N2CCN(Cc3ccc4c5c(c(=O)[nH]c4c3F)CCC5)CC2)c(F)n1 [Comp. Ex. 4, reference compound]
9.00

----------
Biological target: MDR1 (Homo sapiens (Human))
Assay: In vitro human transporter efflux, MDCKII cells expressing MDR1
Format: in vitro ADME
Details: MDCK-MDR1, pH 7.4, apical-to-basolateral, 10 μM, 2-hour incubation, pH7.4, read-out: MDCK-MDR1 Papp AB
QUANTITY_MEASURED: Papp A→B at 2 h, 10 μM (nm/s)
// units = nm/s; emit number, no label

# count of solved cases: 3
| COMPOUND | Papp A→B at 2 h, 10 μM [nm/s] |
| --- | --- |
| CNC(=O)c1ccc(N2CCN(Cc3cc(F)c4c5c(c(=O)[nH]c4c3)COC5)CC2)c(F)n1 [Comp. Ex. 3, reference compound] | 66 |
| CNC(=O)c1ccc(N2CCN(Cc3ccc4c5c(c(=O)[nH]c4c3)CCO5)CC2)c(C)n1 [Comp. Ex. 1, reference compound] | 75 |
| CNC(=O)c1ccc(N2CCN(Cc3ccc4c5c(c(=O)[nH]c4c3F)CCC5)CC2)c(F)n1 [Comp. Ex. 4, reference compound] | 163 |

Next up:
Return Papp A→B at 2 h, 10 μM for the following compound: CNC(=O)c1ccc(N2CCN(Cc3ccc4c5c(c(=O)[nH]c4c3)CCO5)CC2)c(Cl)n1 [Comp. Ex. 2, reference compound]
57
